Read-out record for Human HPK1, catalytic domain (Homo sapiens, UniProt Q92918): IC50
parameter.measured: IC50 (nM)

molecule | readout.value
COc1cc2c(cc1Nc1ncc3ccc(Nc4cc(S(C)(=O)=O)ccc4C)cc3n1)CN(C)CC2 | 2.6
COc1cc2c(cc1Nc1ncc3ccc(N[C@H]4CC[C@@H](O)CC4)cc3n1)CN(C)CC2 | 118
Cc1c(-c2cc3nc(Nc4ccc(CS(C)(=O)=O)cc4F)ncc3c(N)c2F)cnc2c1NCCO2 | 0.0647
CNC(=O)c1ccc(Nc2ncc3c(N)cc(N4C(=O)OC[C@@H]4C)cc3n2)cc1 | 0.255
Cc1c(-c2cc3nc(Nc4ccc(S(C)(=O)=O)cc4)ncc3c(N)c2F)cnc2c1NCCO2 | 0.0851
Cc1c(-c2cc3nc(Nc4ccc5c(c4)CN(C(C)C)CC5)ncc3c(N)c2F)cnc2c1NCC(C)O2 (single isomer, unassigned) | 0.051
COc1cc2c(cc1Nc1ncc3ccc(-c4cnn(C)c4)cc3n1)CNCC2 | 1.49
COc1cc2c(cc1Nc1ncc3ccc(N4CC(C(N)=O)C4)cc3n1)CN(C)CC2 | 669
Cc1ccc(C#N)cc1-c1cc2nc(Nc3ccc(CS(C)(=O)=O)cc3)ncc2c(N)c1F | 131
CCC1COC(=O)N1c1ccc2cnc(Nc3cc4c(cc3OC)CCN(C)C4)nc2c1 (single isomer, unassigned) | 1.05

====

Target: Human HPK1, catalytic domain (Homo sapiens, UniProt Q92918)
Sequence (Q92918 1-346): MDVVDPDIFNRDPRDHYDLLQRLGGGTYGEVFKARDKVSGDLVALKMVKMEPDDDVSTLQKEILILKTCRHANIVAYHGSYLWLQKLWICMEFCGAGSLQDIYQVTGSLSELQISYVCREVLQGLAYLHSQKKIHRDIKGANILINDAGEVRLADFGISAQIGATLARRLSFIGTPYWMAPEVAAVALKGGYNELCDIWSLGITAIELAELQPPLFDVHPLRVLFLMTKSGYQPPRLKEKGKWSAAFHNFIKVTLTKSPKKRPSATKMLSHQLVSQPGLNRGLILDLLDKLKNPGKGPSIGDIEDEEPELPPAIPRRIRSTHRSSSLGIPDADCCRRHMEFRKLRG
parameter.measured: log10(IC50) (log10 of the value in nM)

compound | log10(IC50)
COc1cc2c(cc1Nc1ncc3c(N)c(F)c(-c4cnc(-c5ncco5)cc4C)cc3n1)CN(C)CC2 [Compound 2-61] | 0.10
COc1cc2c(cc1Nc1ncc3ccc(-c4ccc(C#N)cc4C)cc3n1)CNCC2 [Compound 1-33] | 2.13
Cc1c(-c2c(F)c(N)c3cnc(Nc4ccc(CC(C)(C)O)cc4)nc3c2Cl)cnc2c1NCCO2 [Compound 2-164] | -0.31
COc1cc2c(cc1Nc1ncc3ccc(Nc4cccc(C#N)n4)cc3n1)CN(C)CC2 [Compound 3-27] | 1.35
COc1cc2c(cc1Nc1ncc3ccc(-c4ccc5c(c4)CCO5)cc3n1)CNCC2 [Compound 1-72] | 1.73
Cc1c(-c2cc3nc(Nc4ccc5c(c4)CN(C)CC5)ncc3c(N)c2F)cnc2c1NCCO2 [Compound 2-70] | -1.29
CN1CCc2ccc(Nc3ncc4c(N)c(F)c(-c5cncc6[nH]ccc56)cc4n3)cc2C1 [Compound 2-139] | -1.37
COc1cc2c(cc1Nc1ncc3ccc(-c4cnc5c(C#N)cnn5c4)cc3n1)CN(C)CC2 [Compound 1-22] | 2.87
Cc1c(-c2cc3nc(Nc4ccc(CCC#N)cc4)ncc3c(N)c2F)cnc2c1NCCO2 [Compound 2-116] | -0.85
CCS(=O)(=O)Cc1ccc(Nc2ncc3c(N)c(F)c(-c4cnc5c(c4C)NCC(C)O5)cc3n2)c(F)c1 (single isomer, unassigned) [Compound 2-125] | -0.98
COc1cc2c(cc1Nc1ncc3ccc(Nc4ccc5c(c4)N(C(C)=O)CC5)cc3n1)CN(C)CC2 [Compound 3-32] | 1.76
CNC(=O)c1ccc(Nc2ncc3c(N)c(F)c(-c4cnc5c(c4C)NCCO5)c(Cl)c3n2)c(OC)c1 [Compound 2-97] | -0.17
Cc1c(-c2cc3nc(Nc4ccc(C(C)S(C)(=O)=O)cc4)ncc3cc2F)cnc2c1NCCO2 (single isomer, unassigned) [Compound 1-124] | -1.39
CCS(=O)(=O)Cc1ccc(Nc2ncc3c(N)c(F)c(-c4cnc5c(c4C)NCCO5)c(Cl)c3n2)cc1 [Compound 2-134] | 1.76
COc1cc2c(cc1Nc1ncc3ccc(-c4cc(S(=O)(=O)N(C)C)ccc4C)cc3n1)CNCC2 [Compound 1-79] | 2.17
